// provenance: patent US8580965B2

test_system: B1R receptor of the rat (bradykinin 1 receptor) (Rattus norvegicus)
Construct: host or cells: CHO K1 cells (rB1R cells)
Sequence (P97583 1-337): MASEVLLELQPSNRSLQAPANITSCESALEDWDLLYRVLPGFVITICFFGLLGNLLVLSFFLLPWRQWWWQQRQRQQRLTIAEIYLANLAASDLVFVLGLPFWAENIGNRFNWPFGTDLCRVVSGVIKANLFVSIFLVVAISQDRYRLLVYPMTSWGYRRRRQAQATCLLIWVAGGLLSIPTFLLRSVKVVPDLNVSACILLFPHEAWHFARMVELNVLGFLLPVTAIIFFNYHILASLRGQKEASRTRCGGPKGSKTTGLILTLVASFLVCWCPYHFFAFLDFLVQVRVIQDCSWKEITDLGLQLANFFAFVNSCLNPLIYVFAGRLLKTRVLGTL
method_description: FLIPR Ca2+ assay (Fluo-4) on CHO K1 cells stably transfected with the B1R gene of the rat; % activation and % inhibition at 10 μM
Assay type: cell-based
reported_conditions: test substance 10 μM; CHO K1 rB1R cells; Ca2+ inflow after 100 nM Des-Arg9-bradykinin; hydrochloride
Counter-ions that a name gives are not always drawn.
property_name: B1R antagonism, rat [10 μM] % inhibition (%)
Report the figure in % without appending any unit label.

1. COc1cc(C)c(S(=O)(=O)N2CCCCC2COCC(=O)N2CCC(O)(c3cccnc3)CC2)c(C)c1 (stereo not shown) [Example 87, hydrochloride] :: 101.93
2. CN(CCOCC(=O)N1CCC(O)(c2cccnc2)CC1)S(=O)(=O)c1c(Cl)cc(Cl)cc1Cl [Example 5, hydrochloride] :: 95.11
3. COc1cc(C)c(S(=O)(=O)N(C)CCOCC(=O)N2CCC(O)(c3cccnc3)CC2)c(C)c1 [Example 3, hydrochloride] :: 103.06

Moving on to another molecule below.
## Input Which B1R antagonism, rat [10 μM] % inhibition reading was recorded for the molecule COc1cc(C)c(S(=O)(=O)N2CCCC2COCC(=O)N2CCC(O)(c3cccnc3)CC2)c(C)c1 (stereo not shown) [Example 89, hydrochloride] ?
## Output 100.44

###

Measured inhibition at 10 µM, listed per entry.
test_system: human B1R receptor (bradykinin 1 receptor) (Homo sapiens, UniProt P46663)
Construct: host or cells: CHO K1 cells (hB1R cells)
Sequence (P46663 whole entry): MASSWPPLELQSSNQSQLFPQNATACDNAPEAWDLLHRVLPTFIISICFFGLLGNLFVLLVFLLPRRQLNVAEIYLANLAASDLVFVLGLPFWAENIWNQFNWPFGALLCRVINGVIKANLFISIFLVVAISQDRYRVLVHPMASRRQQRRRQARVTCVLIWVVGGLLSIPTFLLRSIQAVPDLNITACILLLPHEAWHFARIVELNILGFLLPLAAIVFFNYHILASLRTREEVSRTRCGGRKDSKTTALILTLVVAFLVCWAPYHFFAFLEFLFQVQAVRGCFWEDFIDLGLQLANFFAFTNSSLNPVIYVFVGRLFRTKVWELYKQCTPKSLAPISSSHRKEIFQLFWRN
method_description: FLIPR Ca2+ assay (Fluo-4) on CHO K1 cells stably transfected with the human B1R gene; % activation and % inhibition at 10 μM
Type: cell-based
reported_conditions: CHO-K1, test substance 10 μM; CHO K1 hB1R cells; Ca2+ inflow after 0.5 nM Lys-Des-Arg9-bradykinin; read-out: B1R antagonism, human [10 μM] % inhibition
Source text: The agonistic or antagonistic action of substances can be quantified on the bradykinin receptor 1 (B1R) of the species human and rat with ectopically expressing cell lines (CHO K1 cells) and with the aid of a Ca^2+-sensitive dye (Fluo-4) using a fluorescent imaging plate reader (FLIPR). […] The agonistic or antagonistic action of substances can be determined on the bradykinin 1 receptor (B1R) of the human and rat species with the following assay. […]

1. Cc1ccc(F)cc1S(=O)(=O)N(C)CCOCC(=O)N1CCC(O)(c2ccc(Cl)cc2)CC1 :: 56.2%
2. COc1cc(C)c(S(=O)(=O)N2CCC(COCC(=O)N3CCC(O)(c4cccnc4)CC3)C2)c(C)c1 (stereo not shown) :: 104%
3. COc1ccc(S(=O)(=O)N(C)CCOCC(=O)N2CCC(O)(c3ccccn3)CC2)cc1 :: 0.67%
4. COc1ccc(S(=O)(=O)N2CCC(OCC(=O)N3CCC(O)(c4ccccn4)CC3)(c3ccccc3)CC2)cc1 :: -7.3%
5. COc1cc(C)c(S(=O)(=O)N(C)CCOCC(=O)N2CCC(O)(c3ccncc3)CC2)c(C)c1 :: 102%
6. COc1cc(C)c(S(=O)(=O)N(C)CCCC(=O)N2CCC(O)(c3cccnc3)CC2)c(C)c1 :: 102%

// moving on: another record for inhibition at 10 µM
## Input Given the compound O=C(COCC1CCCCN1S(=O)(=O)c1c(Cl)cc(C(F)(F)F)cc1Cl)N1CCC(O)(c2ccccc2)CC1 (stereo not shown) , what is its reported inhibition at 10 µM?
## Output 24.6%
